- System: MFH-ino;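 note: growth inhibition of human MFH-ino cells, read out by a cell viability assay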
- test_protocol: cells
- Assay type: functional, cell-based, Homo sapiens
- assay_setup: Homo sapiens, MFH-ino
- Description: SANGER: Inhibition of human MFH-ino cell growth in a cell viability assay.
Can you tell me IC50 for the items I'm about to list?

The molecule listed as C[C@@H](Oc1cc(-c2cnn(C3CCNCC3)c2)cnc1N)c1c(Cl)ccc(F)c1Cl shows IC50 equal to > 2000 nM

The molecule listed as NC(=O)Nc1cc(-c2cccc(F)c2)sc1C(=O)N[C@H]1CCCNC1 shows IC50 equal to > 2000 nM

The molecule listed as Cc1ccc(NC(=O)c2ccc(CN3CCN(C)CC3)cc2)cc1Nc1nccc(-c2cccnc2)n1 shows IC50 equal to > 2000 nM

The molecule listed as O=S(=O)(O)c1ccc2cc(/N=N/c3cc(S(=O)(=O)O)c4cccnc4c3O)ccc2c1 shows IC50 equal to > 16000 nM

----------
Can you tell me IC50 for the items I'm about to list?
- System: RMG-I;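 note: growth inhibition of human RMG-I cells, read out with a cell viability assay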
- test_protocol: cells
- Type: functional, cell-based
- assay_setup: Homo sapiens
- Description: SANGER: Inhibition of human RMG-I cell growth in a cell viability assay.

The compound listed as Cc1ccc(C(=O)Nc2ccc(CN3CCN(C)CC3)c(C(F)(F)F)c2)cc1C#Cc1cnc2cccnn12 [PONATINIB] shows IC50 equal to > 0.512 µM

The compound listed as CC1=C(/C=C/C(C)=C/C=C/C(C)=C/C(=O)O)C(C)(C)CCC1 [TRETINOIN] shows IC50 equal to > 10 µM

The compound listed as CS(=O)(=O)N1CCN(Cc2cc3nc(-c4cccc5[nH]ncc45)nc(N4CCOCC4)c3s2)CC1 [PICTILISIB] shows IC50 equal to > 4 µM

The compound listed as C/C(=C\c1csc(C)n1)[C@@H]1C[C@@H]2O[C@]2(C)CCC[C@H](C)[C@H](O)[C@@H](C)C(=O)C(C)(C)[C@@H](O)CC(=O)O1 [PATUPILONE] shows IC50 equal to > 0.032 µM

The compound listed as CC1(C)CCC(c2ccc(Cl)cc2)=C(CN2CCN(c3ccc(C(=O)NS(=O)(=O)c4ccc(N[C@H](CCN5CCOCC5)CSc5ccccc5)c(S(=O)(=O)C(F)(F)F)c4)cc3)CC2)C1 [NAVITOCLAX] shows IC50 equal to 0.495 µM

The compound listed as CCCCCCCCCCCC1=C(O)C(=O)C=C(O)C1=O [EMBELIN] shows IC50 equal to 9.24 µM

The compound listed as COC(=O)[C@H](CCSC)NC(=O)c1ccc(NC[C@@H](N)CS)cc1-c1ccccc1 shows IC50 equal to > 1.02 µM

----------
Can you tell me IC50 for the items I'm about to list?
- System: RCC10RGB
- test_protocol: cells
- Assay type: functional, cell-based, Homo sapiens
- assay_setup: Homo sapiens, RCC10RGB
- Description: SANGER: Inhibition of human RCC10RGB cell growth in a cell viability assay.
Where a SMILES comes first, the peptide text is derived from it. The star is where a group is joined. Cbz = O=C(OCc1ccccc1)*

The compound listed as NC(=O)c1ccc(N(C(N)=O)c2c(F)cccc2F)nc1-c1ccc(F)cc1F shows IC50 equal to > 2000 nM

The compound listed as CC(C)C[C@@H](C=O)NC(=O)[C@H](CC(C)C)NC(=O)[C@H](CC(C)C)NC(=O)OCc1ccccc1 [MG-132] (Cbz-Leu-Leu-Leu-aldehyde) shows IC50 equal to > 1000 nM

The compound listed as Cc1cc(N2CCOCC2)cc2[nH]c(-c3c(NC[C@@H](O)c4cccc(Cl)c4)cc[nH]c3=O)nc12 shows IC50 equal to 3570 nM
